Target: T1, BmEcR (ecdysone receptor);BmUSP (ultraspiracle) (Bombyx mori;Bombyx mori, UniProt P49881;P49700 1-606;1-462, |)
T1 sequence 1: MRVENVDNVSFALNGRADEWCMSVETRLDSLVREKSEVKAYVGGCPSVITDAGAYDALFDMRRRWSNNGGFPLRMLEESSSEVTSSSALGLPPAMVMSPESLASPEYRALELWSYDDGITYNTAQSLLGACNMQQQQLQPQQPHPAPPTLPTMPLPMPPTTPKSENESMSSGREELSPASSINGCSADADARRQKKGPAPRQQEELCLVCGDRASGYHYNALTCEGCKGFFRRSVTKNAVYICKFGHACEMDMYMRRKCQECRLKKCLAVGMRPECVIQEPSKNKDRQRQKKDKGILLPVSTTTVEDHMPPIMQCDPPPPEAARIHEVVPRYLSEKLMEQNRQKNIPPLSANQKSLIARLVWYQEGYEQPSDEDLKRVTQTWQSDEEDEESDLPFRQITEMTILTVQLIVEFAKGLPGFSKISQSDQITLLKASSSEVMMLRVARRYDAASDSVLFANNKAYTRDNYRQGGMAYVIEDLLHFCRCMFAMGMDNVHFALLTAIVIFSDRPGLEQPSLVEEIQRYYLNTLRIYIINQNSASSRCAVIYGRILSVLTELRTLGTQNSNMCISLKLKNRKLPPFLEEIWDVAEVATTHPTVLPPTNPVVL
T1 sequence 2: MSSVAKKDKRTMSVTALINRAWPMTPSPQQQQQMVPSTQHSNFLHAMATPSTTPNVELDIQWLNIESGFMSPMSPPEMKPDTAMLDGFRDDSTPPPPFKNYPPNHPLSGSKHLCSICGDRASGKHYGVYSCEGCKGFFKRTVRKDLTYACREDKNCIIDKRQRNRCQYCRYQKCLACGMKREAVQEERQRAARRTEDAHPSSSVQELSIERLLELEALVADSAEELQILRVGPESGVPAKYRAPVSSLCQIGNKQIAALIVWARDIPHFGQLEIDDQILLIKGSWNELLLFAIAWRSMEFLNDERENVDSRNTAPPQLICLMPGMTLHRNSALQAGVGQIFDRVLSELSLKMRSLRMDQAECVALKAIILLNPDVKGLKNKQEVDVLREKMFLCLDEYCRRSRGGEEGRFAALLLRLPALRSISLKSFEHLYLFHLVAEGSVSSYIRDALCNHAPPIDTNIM
Assay: EMSA; EMSA: 25 C for 25 min; Beyotime chemiluminescent EMSA kit (binding buffer not stated); 5% native PAGE in Tris-borate-EDTA (45 mM Tris-borate, 1 mM EDTA, pH 8.3); probe 5 uM, BmEcR 0.3 ug/uL, BmUSP 0.45 ug/uL
Details: protein: recombinant;recombinant; tags: ;; copies: 1;1; label: 3'-biotin; blunt
quantity-name: binding result

Previously resolved entries follow.
binder	quantity-name	result
EcRE-like 3 probe (Bio-ERRE-3) (dsDNA) DNA 1: GTTCCGAAATAAAATTACCTGATGGTA DNA 2: TACCATCAGGTAATTTTATTTCGGAAC	binding result	no binding
EcRE-like 1 mutant probe (Bio-ERRE-1 mut) (dsDNA) DNA 1: ATTAGACGATGACGGGTCATGACCT DNA 2: AGGTCATGACCCGTCATCGTCTAAT	binding result	no binding
EcRE-like 2 probe (Bio-ERRE-2) (dsDNA) DNA 1: TAAAGAACCTTTATTAAAATTAAAATA DNA 2: TATTTTAATTTTAATAAAGGTTCTTTA	binding result	no binding
EcRE-like 8 probe (Bio-ERRE-8) (dsDNA) DNA 1: GAGACAGCGTTAGCTGATATTCTAAAT DNA 2: ATTTAGAATATCAGCTAACGCTGTCTC	binding result	no binding

Proceeding to the next binder to report its binding result.
Quick one: binding result for EcRE-like 1 probe (Bio-ERRE-1) (dsDNA) DNA 1: ATTAAGTAGCAGTAAACTGTGACCT DNA 2: AGGTCACAGTTTACTGCTACTTAAT ?
binds
